Tested on: CCRIS mutagenicity, Ames/micronucleus/aberration tests
TEST_DETAILS: CCRIS mutagenicity studies
CONDITION_INFO: Test System: AMES SALMONELLA TYPHIMURIUM; Strain/Indicator: TA98; Metabolic Activation: RAT, LIVER, S-9, AROCLOR 1254; Method: STANDARD PLATE
Activity calls are given as the source filed them. The rule behind the calls is not given here.
Possible outcomes: 1.0 (active), 0.0 (inactive)

MOLECULE	LABEL_VALUE
Nc1nc2cc(Cl)c(Cl)cc2s1	0.0
C[C@@H]1O[C@@H](OC[C@H]2O[C@@H](Oc3c(-c4ccc(OCCO)c(OCCO)c4)oc4cc(OCCO)cc(O)c4c3=O)[C@H](O)[C@@H](O)[C@@H]2O)[C@H](O)[C@H](O)[C@H]1O	0.0
CC(O)CCC(=O)c1ccoc1 (configuration not stated)	0.0
CCCCOC(=O)c1cccc2cccnc12	0.0
ClC1=C(Cl)[C@]2(Cl)[C@@H]3[C@@H]4C[C@@H]([C@H]5O[C@@H]45)[C@@H]3[C@@]1(Cl)C2(Cl)Cl	0.0
C#C[C@]1(O)CC[C@H]2[C@@H]3CCC4=CC(=O)CC[C@@H]4[C@H]3CC[C@@]21C	0.0
NC(=O)NO	1.0
CCCS(=O)(=O)n1ncc(Cl)c(Cl)c1=O	0.0
CN(C)C(=O)c1nc(CNC(=O)CN)n(-c2ccc(Cl)cc2C(=O)c2ccccc2Cl)n1	0.0
ClCC(Cl)(Cl)Cl	1.0
CCC1(C(C)O)OC1(C(N)=O)C(=O)OC (configuration not stated)	0.0
O=CC=C(Cl)Cl	0.0
COc1cc(O)c2c(=O)c(O)c(-c3ccc(O)c(O)c3)oc2c1	1.0
O=C(CCl)c1ccc(Cl)cc1Cl	0.0
NC(=O)c1ccc(N)cc1	0.0
O[C@H]1C=Cc2c(cc3ccc4cccc5ccc2c3c45)[C@@H]1O	1.0
O=[N+]([O-])c1ccc2ccc3cccc4c(O)cc1c2c34	1.0
CNC(=O)Oc1ccc(-c2ccccc2)cc1	0.0
C1=Cc2cc3c4ccccc4ccc3c3cccc1c23	1.0
C=CC(=O)OCCCCCOC(=O)C=C	0.0
CN(C)CC/C=C1\c2ccccc2COc2ccccc21	0.0
O=NN1CCCCC1	0.0

----------
Tested on: CCRIS mutagenicity, Ames/micronucleus/aberration tests
TEST_DETAILS: CCRIS mutagenicity studies
CONDITION_INFO: Test System: AMES SALMONELLA TYPHIMURIUM; Strain/Indicator: TA100; Metabolic Activation: HAMSTER, LIVER, S-9, AROCLOR 1254 (10%); Method: PREINCUBATION
Calls of active or inactive are those of the source. How the calls were made is not given here.
Possible outcomes: 1 = active, -1 = inactive

                                    molecule  label_value
 0                         N#C/C(N)=C(/N)C#N           -1
 1      O=C(OC1CCCCC1)c1ccccc1C(=O)OC1CCCCC1           -1
 2       O=C1OC(=O)c2c(Br)c(Br)c(Br)c(Br)c21           -1
 3                     OCCN1CN(CCO)CN(CCO)C1            1
 4                         CCCCCCCCn1sccc1=O           -1
 5  CCCCC(CC)COC(=O)C(C#N)=C(c1ccccc1)c1ccccc1 (stereo unspecified)           -1
 6                            Nc1n[nH]c(N)n1           -1
 7                   CC(=O)c1c(=O)cc(C)oc1=O           -1
 8                           Nc1ccc(O)c(N)c1           -1
 9                                   NCCNCCN           -1
10                         CCCN(CCC)C(=O)SCC           -1
